# SYSTEM: human EGF-R (Homo sapiens)
# Construct: retroviral vector LXSN, packaging line GP+E86
# Sequence (P00533 25-1210): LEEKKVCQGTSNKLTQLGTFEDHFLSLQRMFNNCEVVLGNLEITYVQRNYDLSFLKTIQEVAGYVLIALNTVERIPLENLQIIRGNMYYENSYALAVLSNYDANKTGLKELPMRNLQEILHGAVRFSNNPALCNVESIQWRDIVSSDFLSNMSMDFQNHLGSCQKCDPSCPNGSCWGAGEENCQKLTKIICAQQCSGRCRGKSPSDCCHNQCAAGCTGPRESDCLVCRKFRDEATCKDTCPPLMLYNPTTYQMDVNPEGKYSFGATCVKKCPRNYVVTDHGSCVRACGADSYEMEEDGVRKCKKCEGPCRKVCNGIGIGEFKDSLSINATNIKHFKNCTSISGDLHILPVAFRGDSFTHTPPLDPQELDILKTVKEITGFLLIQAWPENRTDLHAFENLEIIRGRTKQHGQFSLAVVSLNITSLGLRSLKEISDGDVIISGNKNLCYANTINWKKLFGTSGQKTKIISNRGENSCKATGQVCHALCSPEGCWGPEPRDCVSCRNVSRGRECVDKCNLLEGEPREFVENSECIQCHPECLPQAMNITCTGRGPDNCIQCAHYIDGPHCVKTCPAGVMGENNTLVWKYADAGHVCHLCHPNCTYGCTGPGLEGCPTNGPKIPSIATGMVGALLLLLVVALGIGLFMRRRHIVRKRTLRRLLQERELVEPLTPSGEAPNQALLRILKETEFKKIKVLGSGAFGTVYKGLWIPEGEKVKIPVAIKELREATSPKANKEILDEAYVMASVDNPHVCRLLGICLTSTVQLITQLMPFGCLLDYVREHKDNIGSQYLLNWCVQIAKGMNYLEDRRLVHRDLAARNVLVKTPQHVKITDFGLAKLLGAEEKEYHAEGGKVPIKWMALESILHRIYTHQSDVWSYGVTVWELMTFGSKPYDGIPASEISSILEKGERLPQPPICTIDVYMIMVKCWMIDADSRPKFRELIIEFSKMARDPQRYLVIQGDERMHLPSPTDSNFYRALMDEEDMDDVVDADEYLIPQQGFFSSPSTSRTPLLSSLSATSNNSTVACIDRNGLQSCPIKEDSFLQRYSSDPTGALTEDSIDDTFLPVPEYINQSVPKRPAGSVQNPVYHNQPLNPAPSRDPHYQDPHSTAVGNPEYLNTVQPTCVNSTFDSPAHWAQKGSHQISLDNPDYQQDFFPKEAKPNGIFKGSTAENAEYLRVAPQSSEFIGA
# EXPERIMENT: Inhibition of EGF-dependent proliferation of F/L-HERc cells (Cell Titer 96 AQueous assay)
# COND: F/L-HERc cells (murine IL-3-dependent line expressing human EGF-R), stimulated with EGF 20 ng/ml, 48 hours at 37° C.
MEASURED QUANTITY: IC50 (nM)

MOLECULE	MEASURED QUANTITY	RECORDED RESULT
CCOC(=O)CN(CC=CC(=O)Nc1cc2c(Nc3ccc(F)c(Cl)c3)ncnc2cc1OCC1CC1)CCSC(C)=O	IC50	109
COc1cc2ncnc(Nc3cccc(Br)c3)c2cc1NC(=O)C=CCN(C)CC(OC)OC	IC50	1.8
CCOC(=O)CN(C)CC=CC(=O)Nc1cc2c(N[C@H](C)c3ccccc3)ncnc2cc1OC	IC50	9
C=CC(=O)Nc1cc2c(Nc3cccc(Br)c3)ncnc2cc1OCCCN(C)CC(=O)OCC	IC50	8.7
CCOC(=O)CN1CCN(CC=CC(=O)Nc2cc3c(Nc4ccc(F)c(Cl)c4)ncnc3cc2OC2CCC2)CC1	IC50	1.9
CCOC(=O)CN1CCN(CC=CC(=O)Nc2cc3c(Nc4ccc(F)c(Cl)c4)ncnc3cc2OCC2CC2)CC1	IC50	7.4

A = CCOC(=O)CN(C)CC=CC(=O)Nc1ccc2ncnc(Nc3cccc(Br)c3)c2c1
B = O=C(C=CCN1CCOC(=O)C1)Nc1cc2c(Nc3ccc(F)c(Cl)c3)ncnc2cc1OCC1CC1
C = COC(=O)[C@@H]1CCCN1CC=CC(=O)Nc1cc2c(Nc3ccc(F)c(Cl)c3)ncnc2cc1OCC1CC1
D = CCOC1CN(CC=CC(=O)Nc2cc3c(Nc4cccc(Br)c4)ncnc3cc2OC)CCO1 (centres unmarked)
Prompt: Would you mind ranking these molecules by ascending IC50? Present the labels in the sequence the task asks for.
Completion: D, C, A, B
